Tested on: RKN (Other Solid Carcinomas)
Method description: Bliss excess, mean over the matrix (fraction); higher = more synergy;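 further: after 72 h of two-drug dosing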
Listing: Bliss excess of selected molecules
Could you respond with only the numeric value?

Enter Bliss excess (test system RKN (Other Solid Carcinomas)) for Cc1c2c(nn1C)CSCc1cc(n(C)n1)CSc1cc(c3ccccc3c1)OCCCc1c(C(=O)O)n(C)c3c-2c(Cl)ccc13 [AZD5991] + Nc1ccn([C@@H]2O[C@H](CO)[C@@H](O)C2(F)F)c(=O)n1 [Gemcitabine] (first compound max 1 µM, 7x7, partner max 0.3 µM) -0.0708

Enter Bliss excess (test system RKN (Other Solid Carcinomas)) for CC1(C)CCC(CN2CCN(c3ccc(C(=O)NS(=O)(=O)c4ccc(NCC5CCOCC5)c([N+](=O)[O-])c4)c(Oc4cnc5[nH]ccc5c4)c3)CC2)=C(c2ccc(Cl)cc2)C1 [Venetoclax] + C=CCn1c(=O)c2cnc(Nc3ccc(N4CCN(C)CC4)cc3)nc2n1-c1cccc(C(C)(C)O)n1 [AZD1775] (first compound max 1 µM, partner max 1 µM) -0.0729

----------
Tested on: HCT-15 (Colorectal Carcinoma)
Method description: Bliss excess, mean over the matrix (fraction); higher = more synergy
Listing: Bliss excess of selected compounds
Could you respond with only the numeric value?

[
  {
    "Compound": "COc1cccc(OCCCN)c1-c1cc(Nc2cnc(C#N)cn2)n[nH]1 [Prexasertib] + C[C@@H]1COCCN1C2=NC(=NC(=C2)C3(CC3)[S@](=N)(=O)C)C4=C5C=CNC5=NC=C4 [AZD6738] (first compound max 1 µM, 7x7, partner max 10 µM)",
    "Reported endpoint": "Bliss excess",
    "Recorded value": 0.0391
  },
  {
    "Compound": "CC1(C)CCC(CN2CCN(c3ccc(C(=O)NS(=O)(=O)c4ccc(NCC5CCOCC5)c([N+](=O)[O-])c4)c(Oc4cnc5[nH]ccc5c4)c3)CC2)=C(c2ccc(Cl)cc2)C1 [Venetoclax] + C[C@@H](Nc1cc(F)cc(F)c1)c1cc(C(=O)N(C)C)cc2c(=O)cc(N3CCOCC3)oc12 [AZD8186] (first compound max 1 µM, 7x7, partner max 3 µM)",
    "Reported endpoint": "Bliss excess",
    "Recorded value": -0.0184
  }
]

Could you now look at the following compound, please?
Quick one: give measured Bliss excess for C[C@@H](c1ccc2nccn2c1)n1nnc2ncc(-c3cnn(C)c3)nc21 [Savolitinib] + CN(CC[C@H](CSC1=CC=CC=C1)NC2=C(C=C(C=C2)S(=O)(=O)NC(=O)C3=CC=C(C=C3)N4CCC(CC4)[C@H](C5=CC=CC=C5C6=CC=C(C=C6)Cl)O)S(=O)(=O)C(F)(F)F)CCO [AZD4320] (first compound max 1 µM, 7x7, partner max 1 µM) -0.0274

----------
System: HCT-15 (Colorectal Carcinoma)
Method description: Bliss excess, mean over the matrix (fraction); higher = more synergy
Reported endpoint: Bliss excess

[
  {
    "Compound": "Cc1c2c(nn1C)CSCc1cc(n(C)n1)CSc1cc(c3ccccc3c1)OCCCc1c(C(=O)O)n(C)c3c-2c(Cl)ccc13 [AZD5991] + C[C@@H](Nc1cc(F)cc(F)c1)c1cc(C(=O)N(C)C)cc2c(=O)cc(N3CCOCC3)oc12 [AZD8186] (first compound max 1 µM, 7x7, partner max 3 µM)",
    "Bliss excess": -0.01
  }
]

Enter Bliss excess (test system HCT-15 (Colorectal Carcinoma)) for Cc1cc2ncnn2cc1Nc1ncc2c(n1)n(C1CCOCC1)c(=O)n2C [AZD7648] + CN(C)CCCOc1ccc(-c2ccc3ncc4c(c3c2)n(C2CCOCC2)c(=O)n4C)cn1 [AZD0156] (first compound max 10 µM, 7x7, partner max 1 µM) -0.019

Enter Bliss excess (test system HCT-15 (Colorectal Carcinoma)) for Cc1cc2ncnn2cc1Nc1ncc2c(n1)n(C1CCOCC1)c(=O)n2C [AZD7648] + CCN(CCO)CCCOc1ccc2c(Nc3cc(CC(=O)Nc4cccc(F)c4)[nH]n3)ncnc2c1 [AZD2811] (first compound max 10 µM, 7x7, partner max 1 µM) -0.003

Enter Bliss excess (test system HCT-15 (Colorectal Carcinoma)) for CN(CCO)CC[C@H](CSc1ccccc1)Nc1ccc(S(=O)(=O)NC(=O)c2ccc(N3CCC([C@@H](O)c4ccccc4-c4ccc(Cl)cc4)CC3)cc2)cc1S(=O)(=O)C(F)(F)F [AZD4320] + Cn1cnc2c(F)c(Nc3ccc(Br)cc3Cl)c(C(=O)NOCCO)cc21 [Selumetinib] (first compound max 1 µM, 7x7, partner max 3 µM) 0.0267
